For Replicon cells, expressing the GT1b HCV luciferase replicon, measured CC50 is reported for the entries below.

C#C[C@@]1(O)[C@H](O)[C@@H](COP(=O)(N[C@@H](CCC)C(=O)OC(C)C)Oc2ccccc2)O[C@H]1n1ccc(=O)[nH]c1=O (single isomer, unassigned) [1.24 (peak 1)]: > 25 µM
C#C[C@@]1(O)[C@H](O)[C@@H](COP(=O)(NC(C)(C)C(=O)OCC)Oc2ccccc2)O[C@H]1n1ccc(=O)[nH]c1=O (single isomer, unassigned) [1.37 (peak 1)]: > 25 µM

CC50 reading for C#C[C@@]1(O)[C@H](O)[C@@H](COP(=O)(N[C@@H](C)C(=O)OCC(C)(C)C)Oc2ccccc2)O[C@H]1n1ccc(=O)[nH]c1=O (single isomer, unassigned) [1.33 (peak 1)] : 19.7 µM

CC50 reading for C#C[C@@]1(O)[C@H](O)[C@@H](COP(=O)(N[C@@H](C)C(=O)OC2CCCC2)Oc2ccccc2)O[C@H]1n1ccc(=O)[nH]c1=O (single isomer, unassigned) [1.31 (peak 1)] : > 25 µM

CC50 reading for C#C[C@@]1(O)[C@H](O)[C@@H](COP(=O)(N[C@@H](C)C(=O)OC(CCC)CCC)Oc2ccccc2)O[C@H]1n1ccc(=O)[nH]c1=O (single isomer, unassigned) [1.34 (peak 1)] : > 25 µM

CC50 reading for C#C[C@@]1(O)[C@H](O)[C@@H](CO[P@@](=O)(N[C@@H](C)C(=O)OC(C)C)Oc2ccccc2)O[C@H]1n1ccc(=O)[nH]c1=O (single isomer, unassigned) : > 20 µM

CC50 reading for C#C[C@@]1(O)[C@H](O)[C@@H](COP(=O)(N[C@@H](C)C(=O)OC(C)C)Oc2ccccc2)O[C@H]1n1ccc(OC)nc1=O (single isomer, unassigned) [1.28 (peak 1)] : > 25 µM

CC50 reading for C#C[C@@]1(O)[C@H](O)[C@@H](COP(=O)(N[C@@H](Cc2ccccc2)C(=O)OC(C)C)Oc2ccccc2)O[C@H]1n1ccc(=O)[nH]c1=O (single isomer, unassigned) [1.10 (peak 1)] : > 25 µM

CC50 reading for C#C[C@@]1(O)[C@H](O)[C@@H](COP(=O)(N[C@@H](C)C(=O)OC(C)C)Oc2ccccc2)O[C@H]1n1ccc(N)nc1=O (single isomer, unassigned) [1.30 (peak 1)] : > 25 µM

CC50 reading for C#C[C@@]1(O)[C@H](O)[C@@H](COP(=O)(N[C@@H](C)C(=O)OC2CCOCC2)Oc2ccccc2)O[C@H]1n1ccc(=O)[nH]c1=O (single isomer, unassigned) [1.14 (peak 1)] : > 25 µM

---

Assay: in vitro
Conditions: HCV GT1b CC50 (uM)
compounds and their reported CC50

C#C[C@@]1(O)[C@H](O)[C@@H](COP(=O)(N[C@@H](C)C(=O)OC2CCC2)Oc2ccccc2)O[C@H]1n1ccc(=O)[nH]c1=O (single isomer, unassigned) [1.11 (peak 2)]: > 25 µM
C#C[C@@]1(O)[C@H](O)[C@@H](COP(=O)(N[C@@H](C)C(=O)O[C@H](C)CC)Oc2ccc(Cl)cc2)O[C@H]1n1ccc(=O)[nH]c1=O (stereo partly drawn): > 25 µM

Here is the next item to consider.
CC50 reading for C#C[C@@]1(O)[C@H](O)[C@@H](COP(=O)(N[C@@H](CC)C(=O)OC(C)C)Oc2ccccc2)O[C@H]1n1ccc(=O)[nH]c1=O (single isomer, unassigned) [1.38 (peak 2)] : > 25 µM

---

Test: 4 day CCK-8 cytotoxicity assay using THP-1 cells
Format: cell-based
Conditions: human, read-out: Dengue CC50 (THP-1)
molecules and their reported CC50 at 96 h
Enter your answer as a number in µM; do not include the unit.

C#C[C@@]1(O)[C@H](O)[C@@H](COP(=O)(N[C@@H](C)C(=O)OCc2ccccc2)Oc2ccc(Cl)cc2)O[C@H]1n1ccc(=O)[nH]c1=O (stereo partly shown): 8.3
CC#C[C@@]1(O)[C@H](O)[C@@H](COP(=O)(N[C@@H](C)C(=O)OC(C)C)Oc2ccccc2)O[C@H]1n1ccc(=O)[nH]c1=O (stereo partly shown): 48
C#C[C@@]1(O)[C@H](O)[C@@H](COP(=O)(N[C@@H](C)C(=O)O[C@H](C)CC)Oc2ccc(Cl)cc2)O[C@H]1n1ccc(=O)[nH]c1=O (stereo partly shown): 16

Here is the next item to consider.
CC50 at 96 h reading for C#C[C@@]1(O)[C@H](O)[C@@H](COP(=O)(N[C@@H](C)C(=O)OC2CCCCC2)Oc2ccc(Cl)cc2)O[C@H]1n1ccc(=O)[nH]c1=O (stereo partly shown) : 13

---

Biological target: Dengue polymerase (Dengue virus type 2, UniProt P29990)
Sequence (P29990 2492-3391 limits assumed): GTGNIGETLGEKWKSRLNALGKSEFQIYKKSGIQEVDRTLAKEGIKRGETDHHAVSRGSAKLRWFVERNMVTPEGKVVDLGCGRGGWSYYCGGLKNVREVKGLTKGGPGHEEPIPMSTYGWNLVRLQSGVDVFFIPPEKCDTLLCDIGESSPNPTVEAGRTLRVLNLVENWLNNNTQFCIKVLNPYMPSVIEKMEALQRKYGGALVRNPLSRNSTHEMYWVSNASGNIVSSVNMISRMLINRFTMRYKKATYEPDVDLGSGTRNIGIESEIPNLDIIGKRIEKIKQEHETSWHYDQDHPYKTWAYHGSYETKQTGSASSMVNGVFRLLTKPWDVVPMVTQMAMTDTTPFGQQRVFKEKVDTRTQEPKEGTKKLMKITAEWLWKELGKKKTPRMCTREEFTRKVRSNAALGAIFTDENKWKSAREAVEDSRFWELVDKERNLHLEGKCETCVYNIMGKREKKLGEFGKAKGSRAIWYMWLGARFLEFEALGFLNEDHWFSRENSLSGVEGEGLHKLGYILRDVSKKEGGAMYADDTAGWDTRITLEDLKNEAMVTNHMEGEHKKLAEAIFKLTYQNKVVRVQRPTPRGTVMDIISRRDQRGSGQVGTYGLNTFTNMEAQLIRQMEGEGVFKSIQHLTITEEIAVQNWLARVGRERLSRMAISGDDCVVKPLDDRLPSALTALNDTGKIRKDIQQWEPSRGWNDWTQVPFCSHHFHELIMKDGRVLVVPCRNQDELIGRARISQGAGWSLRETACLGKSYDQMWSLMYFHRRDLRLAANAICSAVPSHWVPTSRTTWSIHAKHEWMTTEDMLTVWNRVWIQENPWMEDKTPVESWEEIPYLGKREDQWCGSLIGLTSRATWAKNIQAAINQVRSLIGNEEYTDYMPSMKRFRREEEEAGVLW
Test: biochemical
Details: Elongation
Observed Property: pIC50
Note on units: pIC50 is unitless, being -log10 of a concentration expressed in mol/L.

C#C[C@@]1(O)[C@H](O)[C@@H](COP(=O)(O)OP(=O)(O)OP(=O)(O)O)O[C@H]1n1ccc(=O)[nH]c1=O: 5.92

Here is the next item to consider.
pIC50 reading for `CC#C[C@@]1(O)[C@H](O)[C@@H](COP(=O)(O)OP(=O)(O)OP(=O)(O)O)O[C@H]1n1ccc(=O)[nH]c1=O` : 5.68

---

Assay: 4 day CCK-8 cytotoxicity assay using THP-1 cells
Format: cell-based
Details: human, read-out: Dengue CC50 (THP-1)
Observed Property: CC50 at 96 h

Here is how some compounds turned out for CC50 at 96 h.
C#C[C@@]1(O)[C@H](O)[C@@H](COP(=O)(NCC(=O)OC(C)C)Oc2ccc(Cl)cc2)O[C@H]1n1ccc(=O)[nH]c1=O (stereo partly drawn): > 50 µM
C#C[C@@]1(O)[C@H](O)[C@@H](COP(=O)(N[C@@H](C)C(=O)OC(CC)CC)Oc2ccc(Cl)cc2)O[C@H]1n1ccc(=O)[nH]c1=O (stereo partly drawn): > 50 µM

Here is the next item to consider.
CC50 at 96 h reading for C#C[C@@]1(O)[C@H](O)[C@@H](CO[P@@](=O)(N[C@@H](C)C(=O)OC(C)C)Oc2ccccc2)O[C@H]1n1ccc(=O)[nH]c1=O (single isomer, unassigned) : > 50 µM
